- Target Of Assay: Serine/threonine-protein kinase PAK 5 (Homo sapiens)
- Condition Context: at 1 µM
- Description: GSK_PKIS: PAK5 mean inhibition at 1 uM [Nanosyn]
Assay Endpoint: inhibition (%)
Answer in %, number only, no unit symbol.

Record excerpt, results attached:
In [3]: df
Out[3]:
                                   compound  reported_value
0  COc1cc2ncn(-c3cc(O[C@@H](C)c4ccccc4Cl)c(C(N)=O)s3)c2cc1OC            4.73
1  COc1ccc(-c2nn3ncccc3c2-c2ccnc(Nc3ccc(Cl)c(C(F)(F)F)c3)n2)cc1           -1.65
2  COc1ccc2cc(-c3c(-c4ccncc4)nc(-c4ccc([S+](C)[O-])cc4)n3C)ccc2c1 (stereo not given)           -3.64
3  NS(=O)(=O)c1cccc(-c2ccc3c(NC(=O)C4CC4)n[nH]c3c2)c1           -5.95
4                CCn1c(-c2nonc2N)nc2ccncc21           -8.04
5  O=C1NC(=O)C(N2CCc3ccccc32)=C1c1ccc(Cl)cc1           -2.87
6  Cc1nn(C)c2cc(N(C)c3ccnc(Nc4cccc(S(N)(=O)=O)c4)n3)ccc12            5.34
7  O=C1NC(=O)C(c2ccc(Cl)cc2)=C1Nc1ccc(Cl)c(C(=O)O)c1            0.32

-- ask Which inhibition reading was recorded for the compound `NC(=O)c1cccc(Nc2nccc(Nc3cccc4[nH]ncc34)n2)c1` ?
-- reply 13.4

-- ask Form field: reported inhibition of `CCCN1CCC=C(c2ccc(Nc3nc(Nc4ccccc4C(N)=O)c4cc[nH]c4n3)c(C)c2)C1`
-- reply 14.2
